Collected literature values of pIC50 measured for SYK kinase (Homo sapiens, UniProt P43405).
Bear in mind: pIC50 is minus log10 of a mol/L concentration; give just that figure.

// solved cases for pIC50 follow
CNC(=O)N1CCO[C@H](COc2nc(-c3ccc4[nH]ncc4c3)cc3nccnc23)C1 : 6.90
COc1cc(Nc2cc(Oc3ccc(NC(=O)Nc4cc(C(C)(C)C)cc(NS(C)(=O)=O)c4OC)c4ccccc34)ccn2)cc(OC)c1C(=O)NCCN(C)C : 6.59
COCCOc1cccc(-n2nc(C(C)(C)C)cc2NC(=O)Nc2ccc(Oc3ccnc(Nc4cc(C)c5[nH]ncc5c4)c3)c3ccccc23)c1 : 7.82

INPUT: Give its pIC50 value. Item: CS(=O)(=O)N1CCC(c2ccc(-c3cc4nccnc4c(OCC4CCCO4)n3)cc2)CC1 (stereo not shown)
OUTPUT: 6.74
